# credit: ChEMBL document CHEMBL1139690

# test-protocol: Clearance in Sprague-Dawley rat at 10 mg/kg, po and 5 mg/kg, iv
# Format: ADME, organism-based
# applied-conditions: in vivo
reported-property: clearance (mL/min)

O=C(/C=C/c1ccccc1Cc1ccc2ccccc2c1)NS(=O)(=O)c1cccs1; 12

a. Cc1ccc(OCc2c(Cl)cccc2Cl)c(/C=C/Cc2ccccc2/C=C/C(=O)O)c1
b. COc1ccc(Br)cc1S(=O)(=O)NC(=O)/C=C/c1ccccc1Cc1ccc2ccccc2c1
Lowest clearance? choose a or b Please reply using the label of the selected record.
b

* * *

# assayed-system: UniProt P35408
# Sequence (P35408 whole entry): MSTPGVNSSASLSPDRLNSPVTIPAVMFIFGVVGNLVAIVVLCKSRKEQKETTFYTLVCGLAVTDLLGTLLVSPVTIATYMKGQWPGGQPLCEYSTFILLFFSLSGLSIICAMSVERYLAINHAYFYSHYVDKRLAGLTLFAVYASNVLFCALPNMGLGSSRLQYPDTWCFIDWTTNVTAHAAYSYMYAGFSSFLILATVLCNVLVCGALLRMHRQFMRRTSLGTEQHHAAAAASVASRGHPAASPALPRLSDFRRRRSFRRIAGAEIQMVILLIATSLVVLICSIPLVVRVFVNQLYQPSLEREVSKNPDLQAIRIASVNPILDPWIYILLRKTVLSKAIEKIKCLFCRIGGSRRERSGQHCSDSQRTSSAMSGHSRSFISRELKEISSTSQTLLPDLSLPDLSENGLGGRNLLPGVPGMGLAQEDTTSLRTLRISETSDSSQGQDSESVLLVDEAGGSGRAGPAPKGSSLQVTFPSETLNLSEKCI
# test-protocol: Binding affinity to EP4 receptor
reported-property: Ki

Worked set:
O=C(/C=C/c1ccccc1C/C=C/c1ccccc1)NS(=O)(=O)c1cccs1; 1500 nM (antagonist)
O=C(O)/C=C/c1ccccc1Cc1ccc2ccccc2c1; 13000 nM
COc1ccc(/C=C/Cc2ccccc2/C=C/C(=O)NS(=O)(=O)c2cccs2)cc1; 1000 nM (antagonist)
O=C(O)/C=C/c1ccccc1Cc1ccc2cc(OCc3ccccc3)ccc2c1; > 15000 nM
COc1cc(/C=C/Cc2ccccc2/C=C/C(=O)O)ccc1OCc1ccccc1; 610 nM (antagonist)
COc1cc(/C=C/Cc2ccccc2/C=C/C(=O)NS(=O)(=O)c2cccs2)ccc1OCc1ccccc1; 840 nM (antagonist)
O=C(/C=C/c1ccccc1/C=C/Cc1ccccc1)NS(=O)(=O)c1cccs1; 1500 nM (antagonist)
COc1ccc(C/C=C/c2ccccc2/C=C/C(=O)NS(=O)(=O)c2cccs2)cc1; 1000 nM (antagonist)
Cc1ccc(OCc2ccccc2)c(/C=C/Cc2ccccc2/C=C/C(=O)O)c1; 2000 nM (antagonist)
Cc1ccc(OCc2ccccc2)c(C/C=C/c2ccccc2/C=C/C(=O)NS(=O)(=O)c2cccs2)c1; 960 nM (antagonist)

Request - read-out Ki | tested on UniProt P35408 | compound COc1ccc(/C=C/Cc2ccccc2/C=C/C(=O)O)cc1
6200 nM (antagonist)

Under UniProt P35408: Ki value of Cc1ccc(OCc2ccccc2)c(/C=C/Cc2ccccc2/C=C/C(=O)NS(=O)(=O)c2cccs2)c1 ?
960 nM (antagonist)

Reported Ki for UniProt P35408, given Cc1ccc(OCc2ccccc2)c(CCCc2ccccc2CCC(=O)NS(=O)(=O)c2cccs2)c1 ?
1000 nM (antagonist)

Please provide the recorded Ki for O=C(O)/C=C/c1ccccc1C/C=C/c1ccccc1 , tested on UniProt P35408.
4400 nM (antagonist)

Notebook: pull reported Ki for UniProt P35408, entry O=C(/C=C/c1ccccc1Cc1ccc2ccccc2c1)NS(=O)(=O)c1cccs1
1300 nM (antagonist)

// map Cc1ccc(OCc2ccccc2)c(C/C=C/c2ccccc2/C=C/C(=O)O)c1 to recorded Ki (system: UniProt P35408)
2000 nM (antagonist)
